# protocol: melting temperature; melt of duplexes
# cond: sodium 0.0675 M; strand 1 µM
// reported Tm for each item listed
quantityKind: Tm (°C)

| substance | quantityKind | u | testResult |
| --- | --- | --- | --- |
| CGACGTGCTGGATGTGCTG+CAGCACATCGCGCACGTCG ((((((((..(((((((((+)))))))))..)))))))) | Tm | °C | 54.8 |
| CGACGTGCGGGATGTGCTG+CAGCACATCTCGCACGTCG (((((((((.(((((((((+))))))))).))))))))) | Tm | °C | 62.3 |
| CGACGTGCTTGATGTGCTG+CAGCACATTGTGCACGTCG ((((((((...((((((((+))))))))...)))))))) | Tm | °C | 47.2 |
| CGACGTGCATAATGTGCTG+CAGCACATCGAGCACGTCG ((((((((...((((((((+))))))))...)))))))) | Tm | °C | 48.5 |
| CGACGTGCTCCATGTGCTG+CAGCACATGGAGCACGTCG (((((((((((((((((((+))))))))))))))))))) | Tm | °C | 66.1 |
| CGACGTGCGTCATGTGCTG+CAGCACATTCCGCACGTCG (((((((((..((((((((+))))))))..))))))))) | Tm | °C | 52.8 |
| CGACGTGCCTCATGTGCTG+CAGCACATGACGCACGTCG ((((((((.((((((((((+)))))))))).)))))))) | Tm | °C | 52.7 |
| CGACGTGCTATATGTGCTG+CAGCACATAATGCACGTCG ((((((((..(((((((((+)))))))))..)))))))) | Tm | °C | 53 |
| CGACGTGCAAAATGTGCTG+CAGCACATACAGCACGTCG ((((((((...((((((((+))))))))...)))))))) | Tm | °C | 49.7 |
| CGACGTGCTTGATGTGCTG+CAGCACATCCAGCACGTCG (((((((((.(((((((((+))))))))).))))))))) | Tm | °C | 57.1 |
| CGACGTGCTGAATGTGCTG+CAGCACATACTGCACGTCG ((((((((.(.((((((((+)))))))).).)))))))) | Tm | °C | 53.7 |

---

// reported Tm for each item listed
# protocol: melting temperature; melt of duplexes
# cond: sodium 0.0675 M; strand 1 µM

| substance | Tm / °C |
| --- | --- |
| CGACGTGCTTGATGTGCTG+CAGCACATGCAGCACGTCG (((((((((..((((((((+))))))))..))))))))) | 51.8 |
| CGACGTGCGGCATGTGCTG+CAGCACATCTGGCACGTCG ((((((((...((((((((+))))))))...)))))))) | 51.1 |
| CGACGTGCTGTATGTGCTG+CAGCACATGGAGCACGTCG (((((((((..((((((((+))))))))..))))))))) | 55 |
| CGACGTGCGGAATGTGCTG+CAGCACATCATGCACGTCG ((((((((...((((((((+))))))))...)))))))) | 51.9 |
